Cited source for all entries: ChEMBL document CHEMBL4190291

Catalogue of inhibition readings, one per entry.
EXPERIMENTAL_TARGET: Inhibitor of nuclear factor kappa-B kinase subunit beta (Homo sapiens)
TEST_DESCRIPTION: Inhibition of full length human GST-tagged IKK2 expressed in baculovirus expression system at 10 uM by Z'-LYTE assay
METRIC: inhibition (%)

COc1ccc(-c2cnc3c(N)nccn23)cc1OC
-4
CNc1nc2ccccc2n2c(C)cnc12
5
CNc1nc2ccccc2n2cncc12
1
Nc1nccn2c(Br)cnc12
10
Nc1nccn2c(-c3ccc(O)c(O)c3)cnc12
-8
CNc1nccn2c(Br)cnc12
6
CNc1nc2cc(C)ccc2n2nccc12
4
CNc1nc2ccccc2n2nccc12
-2
Cc1ccc2c(c1)nc(N(C)C)c1ccnn12
4
Cc1ccc2nc(NCCN)c3ncc(C)n3c2c1
64
CNc1nc2ccccc2n2cnc(Br)c12
10
Cc1ccc2nc(N(C)C)c3ccnn3c2c1
1
CNc1nc2ccc(C)cc2n2ncc(Br)c12
-3
CNc1nc2ccccc2n2c(Br)ncc12
16
CNc1nc2ccccc2n2ncc(Br)c12
1
